# tested.system: SMARCA2 (Homo sapiens, UniProt P51531)
# Sequence (P51531 whole entry): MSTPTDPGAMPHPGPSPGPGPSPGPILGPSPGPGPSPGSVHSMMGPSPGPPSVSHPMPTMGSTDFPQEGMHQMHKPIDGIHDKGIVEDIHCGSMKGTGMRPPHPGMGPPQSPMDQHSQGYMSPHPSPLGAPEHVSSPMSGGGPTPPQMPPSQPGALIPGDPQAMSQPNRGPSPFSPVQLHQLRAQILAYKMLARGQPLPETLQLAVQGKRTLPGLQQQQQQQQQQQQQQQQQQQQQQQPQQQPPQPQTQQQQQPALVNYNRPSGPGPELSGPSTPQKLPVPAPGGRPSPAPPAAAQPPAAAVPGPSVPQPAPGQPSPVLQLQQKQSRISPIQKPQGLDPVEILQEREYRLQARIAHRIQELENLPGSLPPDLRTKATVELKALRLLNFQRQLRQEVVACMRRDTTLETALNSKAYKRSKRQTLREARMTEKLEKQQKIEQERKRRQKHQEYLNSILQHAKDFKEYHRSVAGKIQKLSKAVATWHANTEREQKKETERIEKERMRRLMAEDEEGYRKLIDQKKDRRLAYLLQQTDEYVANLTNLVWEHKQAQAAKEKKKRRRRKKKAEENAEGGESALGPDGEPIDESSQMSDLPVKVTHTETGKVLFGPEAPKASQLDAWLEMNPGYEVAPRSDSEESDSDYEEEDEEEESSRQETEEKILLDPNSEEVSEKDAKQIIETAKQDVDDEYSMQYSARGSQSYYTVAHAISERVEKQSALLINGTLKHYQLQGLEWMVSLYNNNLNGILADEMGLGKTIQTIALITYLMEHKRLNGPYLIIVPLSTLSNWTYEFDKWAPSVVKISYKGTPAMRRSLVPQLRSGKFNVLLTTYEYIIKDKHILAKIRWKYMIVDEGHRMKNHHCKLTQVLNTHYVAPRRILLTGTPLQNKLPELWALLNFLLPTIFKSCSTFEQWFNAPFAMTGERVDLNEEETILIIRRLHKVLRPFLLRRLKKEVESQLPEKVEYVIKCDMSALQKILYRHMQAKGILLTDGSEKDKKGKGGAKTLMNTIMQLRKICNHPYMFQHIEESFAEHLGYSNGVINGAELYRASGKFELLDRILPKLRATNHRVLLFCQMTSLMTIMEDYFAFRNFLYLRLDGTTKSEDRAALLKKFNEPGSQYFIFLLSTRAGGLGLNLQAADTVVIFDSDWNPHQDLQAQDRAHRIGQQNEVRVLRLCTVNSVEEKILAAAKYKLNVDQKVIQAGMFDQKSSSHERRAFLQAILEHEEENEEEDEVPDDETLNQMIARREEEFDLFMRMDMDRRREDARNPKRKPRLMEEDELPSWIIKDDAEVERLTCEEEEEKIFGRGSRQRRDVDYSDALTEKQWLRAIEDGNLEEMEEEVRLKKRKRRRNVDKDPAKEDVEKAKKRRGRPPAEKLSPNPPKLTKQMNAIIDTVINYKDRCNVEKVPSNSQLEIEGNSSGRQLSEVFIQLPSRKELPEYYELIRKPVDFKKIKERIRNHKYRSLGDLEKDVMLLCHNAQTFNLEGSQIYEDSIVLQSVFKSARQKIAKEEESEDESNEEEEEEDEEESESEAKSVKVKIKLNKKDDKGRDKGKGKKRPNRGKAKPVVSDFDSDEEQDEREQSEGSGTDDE
# assay.remarks: SMARCA2 Western blot degradation in MV4-11 cells
# Type: cell-based
# Parameters: SMARCA2/SMARCA4 protein degradation selectivity in MV4-11 cells; endogenous in cells; host or cells: MV4-11
# condition.notes: MV4-11, MV4-11 cells, 24 h; read-out: SMARCA2 MSD MV411 degradation 24 h: average Dmax %
outcome.measure: Dmax

For the molecule C#Cc1ccc(CNC(=O)[C@@H]2C[C@@H](O)CN2C(=O)[C@@H](NC(=O)N2CC3(CC(N4CCC(c5cnc(N6CCc7[nH]c8nnc(-c9ccccc9O)cc8c7[C@H]6C)nc5)CC4)C3)C2)C(C)(C)CCO)cc1 , what Dmax is on record?
> 90%

Please look at the following molecule next.
Please look up its Dmax: C#Cc1ccc([C@@H](CO)NC(=O)[C@@H]2C[C@@H](O)CN2C(=O)[C@@H](NC(=O)N2CC3(CC(N4CCC(c5cnc(N6CCc7[nH]c8nnc(-c9ccccc9O)cc8c7[C@H]6C)nc5)CC4)C3)C2)C(C)(C)C)nc1
50 to 70%
